# measured-on: TRAILR2 receptor on the surface of human tumor cells (human, UniProt O14763 56-440)
# procedure-text: cell-based or functional assay
Mark true for IC50, cytotoxic effect on Jurkat E6-1 cells (CellTiter-Glo, 72 h) under 20 ng/mL, false if at or over.

Zaptuzumab (antibody, V domains shown) VH: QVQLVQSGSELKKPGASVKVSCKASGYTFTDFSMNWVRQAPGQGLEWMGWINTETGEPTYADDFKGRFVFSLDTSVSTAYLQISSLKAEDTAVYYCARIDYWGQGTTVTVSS VL: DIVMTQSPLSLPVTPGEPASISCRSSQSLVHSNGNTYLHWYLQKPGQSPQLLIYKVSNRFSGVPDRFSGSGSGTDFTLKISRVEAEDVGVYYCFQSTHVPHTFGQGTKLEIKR
false
Zapadcine-1d (antibody, V domains shown, MMAF coupled through linker Mc-Vc-PAB by thiol conventional coupling, cleavable; positions not given) VH: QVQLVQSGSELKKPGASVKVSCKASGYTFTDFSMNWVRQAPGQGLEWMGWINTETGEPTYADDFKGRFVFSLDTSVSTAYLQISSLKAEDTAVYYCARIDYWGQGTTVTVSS VL: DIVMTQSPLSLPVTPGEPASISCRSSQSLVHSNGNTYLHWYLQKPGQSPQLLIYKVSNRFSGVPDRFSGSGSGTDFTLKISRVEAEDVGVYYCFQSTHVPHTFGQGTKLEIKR
false

Task: Is IC50, cytotoxic effect on Jurkat E6-1 cells (CellTiter-Glo, 72 h) strictly under 20 ng/mL for the entry Zapadcine-1a (antibody, V domains shown, MMAD coupled through linker Py-Vc-PAB by thiol (disulfide) bridge coupling, cleavable; positions not given) VH: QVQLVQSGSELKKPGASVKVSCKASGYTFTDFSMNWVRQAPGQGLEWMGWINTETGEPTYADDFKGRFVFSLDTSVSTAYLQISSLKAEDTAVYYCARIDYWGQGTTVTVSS VL: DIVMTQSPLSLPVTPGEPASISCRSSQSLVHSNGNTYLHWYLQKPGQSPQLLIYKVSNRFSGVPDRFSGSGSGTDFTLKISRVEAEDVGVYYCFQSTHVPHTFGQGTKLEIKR ?
Result: true

Task: Is 20 ng/mL strictly greater than the binder's reported IC50, cytotoxic effect on Jurkat E6-1 cells (CellTiter-Glo, 72 h)? binder: Zapadcine-1c (antibody, V domains shown, MMAD coupled through linker Py-MAA by thiol bridge coupling, non-cleavable; positions not given) VH: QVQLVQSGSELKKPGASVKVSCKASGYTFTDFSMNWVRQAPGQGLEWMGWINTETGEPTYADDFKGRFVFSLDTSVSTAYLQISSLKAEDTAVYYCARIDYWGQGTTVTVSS VL: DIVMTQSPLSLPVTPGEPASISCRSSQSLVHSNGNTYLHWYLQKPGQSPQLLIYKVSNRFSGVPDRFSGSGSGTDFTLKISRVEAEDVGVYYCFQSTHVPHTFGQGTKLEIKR
Result: true

Task: Please let me know if Zapadcine-1b (antibody, V domains shown, MMAD coupled through linker Mc-Vc-PAB by thiol conventional coupling, cleavable; positions not given) VH: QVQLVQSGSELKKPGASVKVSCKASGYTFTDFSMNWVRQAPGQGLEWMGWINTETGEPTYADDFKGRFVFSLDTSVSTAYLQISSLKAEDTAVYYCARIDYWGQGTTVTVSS VL: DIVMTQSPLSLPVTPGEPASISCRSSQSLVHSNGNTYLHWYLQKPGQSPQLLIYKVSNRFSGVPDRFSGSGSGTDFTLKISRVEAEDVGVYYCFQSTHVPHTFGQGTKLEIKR shows IC50, cytotoxic effect on Jurkat E6-1 cells (CellTiter-Glo, 72 h) below 20 ng/mL.
Result: true
